tested on: MIA PaCa-2; assay: Antiproliferative activity against human MIAPaCa2 cells after 48 hrs by sulforhodamine B assay; type: functional, cell-based; conditions: MIA PaCa-2, 48 h
// returns False unless IC50 is strictly below 20 µM, in which case True

| compound structure string | group label |
| --- | --- |
| COc1ccc2nc(-c3ccc(N/C=C\C(=O)c4ccc(OC)c(F)c4)c(C)c3)sc2c1 | True |
| COc1ccc2nc(-c3ccc(N/C=C\C(=O)c4ccc(OC)c(O)c4)cc3)sc2c1 | False |
| COc1ccc2nc(-c3ccc(N/C=C\C(=O)c4ccc(OC)c(O)c4)c(C)c3)sc2c1 | True |
| COc1ccc(C(=O)/C=C\Nc2ccc(-c3nc4cc(OC)c(OC)c(OC)c4s3)cc2)cc1[N+](=O)[O-] | True |
| COc1cc(OC)c2sc(-c3ccc(N/C=C\C(=O)c4ccc(OC)c(O)c4)c(C)c3)nc2c1 | False |

# next compound below
Hello, I'm reviewing records and need to know if IC50 of "COc1cc(OC)c2sc(-c3ccc(N/C=C\C(=O)c4cc(OC)c(OC)c(OC)c4)c(C)c3)nc2c1" is below 20 µM. Could you check?
True

---

Here, each record is paired with measured pIC50 data.
tested on: MIA PaCa-2; assay: Antiproliferative activity against human MIAPaCa2 cells after 48 hrs by sulforhodamine B assay; format: functional, cell-based; conditions: MIA PaCa-2, 48 h
Note on units: pIC50 is unitless, being -log10 of a concentration expressed in mol/L.

Known pIC50 results, listed for orientation:
| compound | pIC50 |
| --- | --- |
| COc1cc(C(=O)/C=C\Nc2ccc(-c3nc4cc(OC)c(OC)c(OC)c4s3)cc2)cc(OC)c1OC | 4.54 |
| COc1ccc2nc(-c3ccc(N/C=C\C(=O)c4cc(OC)c(OC)c([N+](=O)[O-])c4)c(C)c3)sc2c1 | 4.92 |
| COc1cc(C(=O)/C=C\Nc2ccc(-c3nc4cc(OC)c(OC)c(OC)c4s3)cc2)cc([N+](=O)[O-])c1OC | 4.80 |
| COc1ccc2nc(-c3ccc(N/C=C\C(=O)c4ccc(OC)c([N+](=O)[O-])c4)c(C)c3)sc2c1 | 4.63 |
| COc1ccc(C(=O)/C=C\Nc2ccc(-c3nc4cc(OC)c(OC)c(OC)c4s3)cc2C)cc1F | 5.74 |
| COc1ccc2nc(-c3ccc(N/C=C\C(=O)c4cc(OC)c(OC)c(OC)c4Br)cc3)sc2c1 | 4.83 |

Record request: pIC50 value, item "COc1cc(OC)c2sc(-c3ccc(N/C=C\C(=O)c4cc(OC)c(OC)c(OC)c4Br)cc3)nc2c1"
4.72

May I ask what pIC50 has been recorded for COC(=O)Nc1nc2cc(C(=O)c3cccs3)ccc2[nH]1 [NOCODAZOLE] ?
6.04

What measured pIC50 goes with "COc1cc(C(=O)/C=C\Nc2ccc(-c3nc4cc(OC)c(OC)c(OC)c4s3)cc2)c(Br)c(OC)c1OC" ?
4.63

Recorded pIC50 of "COc1cc(OC)c2sc(-c3ccc(N/C=C\C(=O)c4ccc(OC)c([N+](=O)[O-])c4)cc3)nc2c1" , please.
5.54

Consider the compound shown here: "COc1cc(OC)c2sc(-c3ccc(N/C=C\C(=O)c4ccc(OC)c(F)c4)c(C)c3)nc2c1" What is its recorded pIC50?
4.79

I would be grateful if you could share the reported pIC50 for "COc1ccc2nc(-c3ccc(N/C=C\C(=O)c4cc(OC)c(OC)c(OC)c4Br)c(C)c3)sc2c1" .
4.63

Param item = "COc1ccc(C(=O)/C=C\Nc2ccc(-c3nc4cc(OC)c(OC)c(OC)c4s3)cc2C)cc1O" ; retrieve measured pIC50.
4.81

Reported pIC50, compound "COc1cc(C(=O)/C=C\Nc2ccc(-c3nc4cc(OC)c(OC)c(OC)c4s3)cc2C)cc([N+](=O)[O-])c1OC" : ____
4.66

Origin of the recorded values: ChEMBL document CHEMBL4261486
